- target-of-assay: Env of HIV-1 strain PVO.4 (HIV-1)
- procedure-text: cell-based or functional assay
reported-metric: neutralization IC50

binder: γ3κ11 (antibody, V domains shown) VH: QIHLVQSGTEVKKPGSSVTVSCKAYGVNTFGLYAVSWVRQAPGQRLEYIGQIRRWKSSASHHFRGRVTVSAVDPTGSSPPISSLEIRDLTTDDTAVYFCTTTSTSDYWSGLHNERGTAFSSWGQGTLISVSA VL: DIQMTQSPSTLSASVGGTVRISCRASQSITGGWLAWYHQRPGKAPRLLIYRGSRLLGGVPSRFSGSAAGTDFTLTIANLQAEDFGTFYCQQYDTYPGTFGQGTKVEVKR
result: 0.074 µg/mL
--
binder: γ22κ11 (antibody, V domains shown) VH: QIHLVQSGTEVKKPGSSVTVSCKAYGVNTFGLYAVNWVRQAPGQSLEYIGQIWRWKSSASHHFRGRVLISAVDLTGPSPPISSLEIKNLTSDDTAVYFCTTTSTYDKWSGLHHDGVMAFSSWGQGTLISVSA VL: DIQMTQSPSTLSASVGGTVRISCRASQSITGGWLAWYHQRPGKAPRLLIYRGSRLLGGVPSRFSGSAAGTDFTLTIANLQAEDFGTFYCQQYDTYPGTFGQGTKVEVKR
result: > 15 µg/mL
